Source of measurements: ChEMBL document CHEMBL3822431

Please respond with reported inhibition at 200 µM for every item in the list.
tested on: Streptococcus mutans; test: Inhibition of biofilm formation of Streptococcus mutans UA159 at 200 uM after 16 hrs by crystal violet staining; type: functional; details: UA159, 16 h
Enter your answer as a number in %; do not include the unit.

### Prompt Could you share which inhibition at 200 µM value was measured for COc1ccc(/C=C/C(=O)c2ccc(OC)c(OC)c2)cc1O ?
### Response 27

### Prompt Could you share which inhibition at 200 µM value was measured for O=C(/C=C/c1cc(Cl)cc(Cl)c1O)c1cccc(O)c1 ?
### Response 81

### Prompt Could you share which inhibition at 200 µM value was measured for O=C(/C=C/c1cccc(O)c1)c1ccccc1O ?
### Response 84

### Prompt Could you share which inhibition at 200 µM value was measured for O=C(/C=C/c1ccc(O)cc1)c1ccccc1O ?
### Response 27

### Prompt Could you share which inhibition at 200 µM value was measured for COc1ccc(/C=C/C(=O)c2cc(O)ccc2O)cc1 ?
### Response 87

### Prompt Could you share which inhibition at 200 µM value was measured for O=C(/C=C/c1ccc(O)cc1O)c1cccc(O)c1 (stereo in doubt; 9) ?
### Response 93

### Prompt Could you share which inhibition at 200 µM value was measured for COc1cc(/C=C/C(=O)c2ccccc2O)ccc1O ?
### Response 86

### Prompt Could you share which inhibition at 200 µM value was measured for COc1cc(C(=O)/C=C/c2ccccc2O)ccc1O ?
### Response 85

----------
Target: Glucosyltransferase-SI (Streptococcus mutans serotype c (strain ATCC 700610 / UA159)) (UniProt P13470)
Sequence (whole entry): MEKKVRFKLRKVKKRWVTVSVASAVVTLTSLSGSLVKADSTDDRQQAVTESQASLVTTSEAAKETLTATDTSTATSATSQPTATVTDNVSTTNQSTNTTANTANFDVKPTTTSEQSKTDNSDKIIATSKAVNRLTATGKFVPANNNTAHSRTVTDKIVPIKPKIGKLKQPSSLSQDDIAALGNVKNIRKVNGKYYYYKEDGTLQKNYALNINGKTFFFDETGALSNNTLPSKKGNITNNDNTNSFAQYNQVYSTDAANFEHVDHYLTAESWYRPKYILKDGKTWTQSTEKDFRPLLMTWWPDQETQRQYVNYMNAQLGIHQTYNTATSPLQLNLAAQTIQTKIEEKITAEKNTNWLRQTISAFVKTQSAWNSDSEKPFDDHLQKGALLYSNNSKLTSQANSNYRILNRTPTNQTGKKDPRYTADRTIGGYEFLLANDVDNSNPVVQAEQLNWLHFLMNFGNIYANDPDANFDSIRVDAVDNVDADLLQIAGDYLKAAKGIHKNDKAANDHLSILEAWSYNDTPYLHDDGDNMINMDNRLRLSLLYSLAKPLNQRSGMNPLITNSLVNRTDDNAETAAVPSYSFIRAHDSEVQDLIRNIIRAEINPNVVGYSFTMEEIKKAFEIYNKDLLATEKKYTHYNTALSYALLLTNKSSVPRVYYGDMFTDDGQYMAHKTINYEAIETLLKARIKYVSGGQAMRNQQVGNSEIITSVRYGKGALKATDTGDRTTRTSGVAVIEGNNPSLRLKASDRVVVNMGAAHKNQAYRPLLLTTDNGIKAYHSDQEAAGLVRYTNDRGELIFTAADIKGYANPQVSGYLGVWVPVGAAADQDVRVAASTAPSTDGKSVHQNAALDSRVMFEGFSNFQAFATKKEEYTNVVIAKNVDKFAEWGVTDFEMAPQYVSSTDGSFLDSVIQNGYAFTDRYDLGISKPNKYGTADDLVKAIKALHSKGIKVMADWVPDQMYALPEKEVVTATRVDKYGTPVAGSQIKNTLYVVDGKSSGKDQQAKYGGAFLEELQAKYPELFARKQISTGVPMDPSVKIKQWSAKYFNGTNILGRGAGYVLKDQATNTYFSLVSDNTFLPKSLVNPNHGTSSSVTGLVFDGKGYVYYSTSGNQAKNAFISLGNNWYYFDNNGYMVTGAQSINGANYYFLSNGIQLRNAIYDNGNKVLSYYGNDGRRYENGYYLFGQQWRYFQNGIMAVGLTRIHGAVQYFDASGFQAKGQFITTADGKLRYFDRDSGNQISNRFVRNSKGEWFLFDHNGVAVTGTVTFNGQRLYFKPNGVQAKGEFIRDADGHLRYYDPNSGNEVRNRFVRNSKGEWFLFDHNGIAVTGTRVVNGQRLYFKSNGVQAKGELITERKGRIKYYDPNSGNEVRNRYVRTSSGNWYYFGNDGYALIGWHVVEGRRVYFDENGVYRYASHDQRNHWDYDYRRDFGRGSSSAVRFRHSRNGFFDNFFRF
Experiment: Inhibition of Wild-type Streptococcus mutans UA159 glucosyltransferase C at 50 uM by coomassie blue staining based SDS-PAGE method
The source made the active and inactive calls. The rule behind the calls is not given here.
assayReadout: inhibition

Use the examples below as a reference point.
compound	inhibition
O=C(/C=C/c1ccc(O)cc1O)c1ccc(O)cc1	Active
O=C(/C=C\c1ccc(O)cc1O)c1ccc(O)cc1	Active
O=C(/C=C/c1cc(O)c(O)cc1O)c1ccccc1O (stereo in doubt; 18c)	Active
O=C(/C=C\c1ccc(O)cc1O)c1cccc(O)c1	Active

### Prompt Could you share which inhibition value was measured for O=C(/C=C/c1cc(O)c(O)cc1O)c1ccccc1O (stereo in doubt; 18d) ?
### Response Active

### Prompt Could you share which inhibition value was measured for O=C(/C=C/c1ccc(O)cc1O)c1cccc(O)c1 (stereo in doubt; 9a) ?
### Response Active
